system: SF-268 CNS; assay: NCI-60 one-dose screen, 48 h (100 = growth as untreated, 0 = no growth, -100 = all killed); conditions: 10 µM unless noted
About 83,000 compounds went through this panel and 20% of them were active in at least one assay; those are over-represented in the sample as a whole.
growth values, listed per item
Express it in %; write the number only.

INSERT INTO assay_data (smiles_str, assay_readout, unit_info, result_number) VALUES
  ('COc1cc2ncnc3c2cc1OCCCCCN(C)Cc1ccc(Br)cc1N3', 'growth', '%', 65.1),
  ('CCCCn1c(C)nc2ccc(Nc3nc(N4CCN(C)CC4)nc4nc[nH]c34)cc21', 'growth', '%', 73.2);

Here is another compound to look at.
For `CN(C)C[C@@H]1CCn2cc(c3ccccc32)C2=C(C(=O)NC2=O)c2cn(c3ccccc23)CCO1` , write its growth.
36.6

====

Recorded growth, one value per entry.
tested on: CAKI-1 renal; test: NCI-60 one-dose screen, 48 h (100 = growth as untreated, 0 = no growth, -100 = all killed); conditions: 10 µM unless noted
About 83,000 compounds went through this panel and 20% of them were active in at least one assay; those are over-represented in the sample as a whole. Calls of active or inactive are those of the source. How the source made its calls: active means growth percent below 10; inactive means the rest.

Solved entries:
INSERT INTO measurements (compound, result) VALUES
  ('Cc1[nH]n(C(N)=S)c(=O)c1N=Nc1ccc(S(=O)(=O)Nc2ccncn2)cc1', '155% (inactive)'),
  ('O=C1CC(c2cccc(F)c2)c2c(n[nH]c2-c2ccc(Cl)cc2)N1 (stereo unspecified)', '77.7% (inactive)'),
  ('Cc1nc2ccc(-n3ncc(C(=O)c4cc5ccccc5[nH]4)c3N)cc2[nH]1', '62.2% (inactive)'),
  ('COC(=O)[C@@H](OC)[C@@H]1Cc2cc3cc(OC4CC(OC5CC(O)C(O)C(C)O5)C(O)C(C)O4)c(C)c(O)c3c(O)c2C(=O)[C@H]1OC1CC(OC2CC(OC3CC(C)(O)C(O)C(C)O3)C(O)C(C)O2)C(O)C(C)O1 (stereo partly specified)', '14.8% (inactive)'),
  ('CO[C@H](C(=O)N[C@@H](CCCCNC(=O)OCc1ccccc1)C(=O)OC(C)(C)C)[C@@H]1Cc2cc3cc(OC4CC(OC5CC(O)C(O)C(C)O5)C(O)C(C)O4)c(C)c(O)c3c(O)c2C(=O)[C@H]1OC1CC(OC2CC(OC3CC(C)(O)C(O)C(C)O3)C(O)C(C)O2)C(O)C(C)O1 (stereo partly specified)', '22.6% (inactive)');

Next compound, growth to be filled in.
State the measured growth (CAKI-1 renal) of `COC(=O)N[C@@H](C)CNc1nccc(-c2cn(C(C)C)nc2-c2cc(Cl)cc(NS(C)(=O)=O)c2F)n1`
34.2% (inactive)

====

System: HOP-62 NSCLC
Assay: NCI-60 one-dose screen, 48 h (100 = growth as untreated, 0 = no growth, -100 = all killed)
Conditions: 10 µM unless noted
Procedure: Growth inhibition of the HOP-62 human Non-Small Cell Lung tumor cell line is measured as a screen for anti-cancer activity. Cells are grown in 96 well plates and exposed to the test compound for 48 hours. Compounds are tested at a single concentration, which is 10^-5 M for most compounds. The reported endpoint is percent growth (GI% or GIPRCNT), where numbers from 0 - 100% represent growth inhibition, and numbers from -100% - 0 represent cell death. […]
This is part of a sample that, as a whole, favours compounds with a hit. Of some 83,000 tested, about 20% had one in any assay.
assay readout: growth (%)
Please state the figure in %; there is no need to write the unit.

INSERT INTO results (compound, assay_readout, result_number) VALUES
  ('ClCc1ccc(-c2ccc(Cn3cnc4c(Cl)nc(Cl)nc43)cc2)cc1', 'growth', -15.9),
  ('Cc1ccc(C(=O)Nc2ccc(CN3CCN(C)CC3)c(C(F)(F)F)c2)cc1C#Cc1cnc2cccnn12', 'growth', -93.6),
  ('c1cn2cc(-c3ccc4cn[nH]c4c3)nc(Nc3ccc(N4CCOCC4)cc3)c2n1', 'growth', 9.23),
  ('O=C(COc1ccc(/C=C2\Cc3ccc(Cl)cc3C2=O)cc1)Nc1nccs1', 'growth', 101);

Name the recorded growth of the compound listed here: `CCCCCCCC(=O)SCC/C=C/[C@@H]1CC(=O)NCc2cccc(n2)C2=N[C@@](C)(CS2)C(=O)N[C@@H](C(C)C)C(=O)O1`
-22.2

Provide measured growth value, entry: `CC(C)c1cc(CNc2nc(Nc3cc(C4CC4)[nH]n3)cc(N3CCN(C)CC3)n2)on1`
-23.5

Identify measured growth associated with `CO[C@@H](C)Cn1c(=O)n(C)c2cnc3ccc(-c4cncc(C(C)(C)O)c4)cc3c21`
-14.5

Give the measured growth for CCCc1cc2cc(-n3nc(C)c4c3CC(C)(C)CC4=O)cc(NC3CCC(O)CC3)c2c(=O)[nH]1 (stereo not drawn)
28.5

Recall and state the measured growth for `CNC(=O)c1ccccc1Nc1nc(Nc2ccc3c(c2OC)CCC[C@H](N2CCN(CCO)CC2)C3)ncc1Cl` .
-48.7

Give a short answer stating reported growth for `OCCNC(=S)Nc1ccc(-c2nc(N3C[C@H]4CC[C@@H](C3)O4)c3cccn3n2)cc1` .
-14.3

Consider the compound CC(=O)CC1CCCC1c1ccc2ccccc2c1 (stereo not drawn) . State its measured growth.
96.6

Give growth for `C=CC(=O)N1CCC[C@@H](n2nc(-c3ccc(Oc4ccccc4)cc3)c3c(N)ncnc32)C1`
73.1

Supply reported growth belonging to this compound: `Cc1nc(NC(=O)N2CCC[C@H]2C(N)=O)sc1-c1ccnc(C(C)(C)C(F)(F)F)c1`
49.4
